Please go through the items and note down their interaction score.
# assay_target: T1, 4H491-bH
# T1 chain: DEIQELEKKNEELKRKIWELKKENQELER
# assay_summary: two-hybrid library CCNG1;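 note: natural log of median RNA to DNA barcode read ratio; higher means stronger binding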
Give bare numbers.

Illustrative cases are given below, each with its answer.
{"binder": "DEIQELEKEIEELERKIWELKKKNQELKR [4H48-bH]", "interaction score": 2.29}
{"binder": "DKIQELKKKIEELKREIWELEKENQELER [4H2883-bH]", "interaction score": 0.298}
{"binder": "DEIQELEKKNEELKRKIWELKKENQELER [4H491-bH]", "interaction score": -1.32}

Continue with the binder presented below.
Prompt: What measured interaction score goes with DKIQELKKENEELEREIWELEKKNQELKR [4H2696-bH] ?
Response: 1.73
